# Target desc: T1, ST2 on KU812 cells (UniProt Q01638 19-556, limits assumed)
# T1 sequence (looked up): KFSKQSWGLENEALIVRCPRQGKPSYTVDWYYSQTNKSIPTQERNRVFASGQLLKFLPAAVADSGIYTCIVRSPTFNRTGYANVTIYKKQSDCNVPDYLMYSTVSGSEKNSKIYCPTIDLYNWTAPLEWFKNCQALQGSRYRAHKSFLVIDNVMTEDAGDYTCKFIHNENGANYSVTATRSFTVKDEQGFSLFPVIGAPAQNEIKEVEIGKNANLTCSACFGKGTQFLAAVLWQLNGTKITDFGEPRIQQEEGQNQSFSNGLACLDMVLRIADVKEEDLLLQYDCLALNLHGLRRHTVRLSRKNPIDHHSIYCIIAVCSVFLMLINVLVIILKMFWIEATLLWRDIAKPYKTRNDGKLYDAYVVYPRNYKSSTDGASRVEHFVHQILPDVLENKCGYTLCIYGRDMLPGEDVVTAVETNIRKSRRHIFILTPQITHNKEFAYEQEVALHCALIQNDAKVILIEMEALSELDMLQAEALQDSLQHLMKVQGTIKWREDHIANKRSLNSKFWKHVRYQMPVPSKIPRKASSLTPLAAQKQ
# Protocol notes: cell-based or functional assay
Metric: Maximum inhibition rate (%), KU812 IL-5 production
Provide the reading as a plain figure in %.

{"Binder": "5887-537H3+L1 (antibody, V domains shown, murine antibody; also called 5887-537H3H+L1) VH: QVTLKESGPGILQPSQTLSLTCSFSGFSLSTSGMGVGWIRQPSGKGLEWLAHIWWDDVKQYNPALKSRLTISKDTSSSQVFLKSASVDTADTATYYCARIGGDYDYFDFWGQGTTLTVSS VL: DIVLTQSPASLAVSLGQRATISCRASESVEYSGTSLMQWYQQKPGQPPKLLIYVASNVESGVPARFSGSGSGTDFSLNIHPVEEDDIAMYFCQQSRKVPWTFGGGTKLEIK", "Reading": 62.2}
{"Binder": "Control antibody CNTO7160 (antibody, human IgG4 S228P, kappa, V domains shown) VH: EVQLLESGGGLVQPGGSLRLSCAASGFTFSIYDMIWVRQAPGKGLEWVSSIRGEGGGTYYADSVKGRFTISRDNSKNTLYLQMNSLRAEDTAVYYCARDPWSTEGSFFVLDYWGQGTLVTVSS VL: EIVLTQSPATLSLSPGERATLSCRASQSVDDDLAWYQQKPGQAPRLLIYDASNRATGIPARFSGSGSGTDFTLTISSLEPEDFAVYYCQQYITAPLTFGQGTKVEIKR", "Reading": 89}

Query: Please indicate Maximum inhibition rate (%), KU812 IL-5 production recorded for 5888-153H1+L2 (antibody, V domains shown, murine antibody) VH: QVQLQQSGAELVRPGASVTLSCKASGYTFTDYELHWVKQTPVHGLEWIGTIDPETGDTVYNQKFKAKAILTADKSSSTAYMEFRSLTSEDSAVCYCTRAFYNDYDDGFAYWGQGTLVTVSA VL: QIVMTQTPAIMSASPGEKVTMTCSVSSSVSYMHWYQQKSGTSPKRWIYDTSKLASGVPARFSGSGSGTSYSLTINNMEAEDAATYYCQQWNSSPLTFGAGTKLELK
Response: 86
